# EXPERIMENT SUMMARY: qHTS Assay for Rab9 Promoter Activators; also: nearly all actives have a fitted effect of over 60% in size; also: potency is read from the fitted curve at half-maximal effect
# EXPERIMENTAL CONTEXT: Huh7 Rab9 promoter-luciferase reporter, luminescence, 24 h; series mostly up to 9.22 µM
Screen size: about 320,000 compounds; about 9,100 (2.8%) were called active. Roughly 3% stayed inconclusive and do not appear here. For the sample, actives were picked, then their nearest neighbours and some compounds at random.
QUANTITY MEASURED: Potency

Some entries whose results are on file:
MOLECULE: Cc1csc(NC(=O)C2=COCCO2)n1
Potency: 3550 nM (active)
//
MOLECULE: Cc1ccc(C(=O)OCc2nc(N)nc(Nc3ccccc3C)n2)cc1
Potency: inactive
//
MOLECULE: Cc1nc2ccc(NC(=O)C(F)(F)F)cc2o1
Potency: inactive
//
MOLECULE: CCOc1ccc(-c2nnc(-c3ccco3)o2)cc1
Potency: 355 nM (active)
//
MOLECULE: Cc1ccc(C)c(NC(=O)CN(C)C(=O)c2ccc3ncsc3c2)c1
Potency: inactive

Data request: Give Potency for the following molecule: CC(=O)Oc1ccc2c(c1)C(=O)c1ccccc1C2=O
Data returned: inactive

Data request: Give Potency for the following molecule: N#Cc1ccc(OCc2nnc(-c3ccc([N+](=O)[O-])cc3)o2)cc1
Data returned: inactive

----------
# EXPERIMENT SUMMARY: qHTS Assay for Rab9 Promoter Activators; also: nearly all actives have a fitted effect of over 60% in size
# EXPERIMENTAL CONTEXT: Huh7 Rab9 promoter-luciferase reporter, luminescence, 24 h; series mostly up to 9.22 µM
Hit rate of the full screen: of about 320,000 compounds, about 9,100 (2.8%) were called active. Not shown: some 3% with an inconclusive outcome. Calls come from the whole dose curve; as a rule, active = well fitted activation curve with a large enough effect; inconclusive = small, poorly fitted or top-dose-only effect; inactive = no such curve, though single readings can be large or run the other way. Many of the other results were omitted from the sample, so actives are more common in it than they were.
Select the correct class. Options are active, inactive and nothing else.

COMPOUND: CC(Sc1nnc(C2CC2)n1C1CC1)C(=O)Nc1ccc(C(N)=O)cc1 (stereo not drawn)
CATEGORY LABEL: inactive
--
COMPOUND: CC(=O)NCc1ccc(-c2csc(NC(=O)CCCc3nc4ccccc4c(=O)[nH]3)n2)cc1
CATEGORY LABEL: inactive
--
COMPOUND: Fc1ccc(COc2ccc(-c3nnco3)cc2)cc1
CATEGORY LABEL: active
--
COMPOUND: CCn1nnnc1SCC(=O)Nc1ccc(N(C)C)cc1
CATEGORY LABEL: inactive
--
COMPOUND: CCOc1ccccc1NC(=O)NC1CCCCCCC1
CATEGORY LABEL: inactive
--
COMPOUND: CC1CCN(C(=O)COC(=O)c2cc(=O)[nH]c3ccccc23)CC1
CATEGORY LABEL: active

Data request: Hi team, can someone confirm the assay call for Cc1noc(C)c1C(=O)NCC1COc2ccccc2O1 (stereo not drawn) ?
Data returned: inactive

Data request: Hi team, can someone confirm the assay call for O=C(NNC(=O)c1ccc(-n2cncn2)c([N+](=O)[O-])c1)c1ccccc1 ?
Data returned: inactive

Data request: Hi team, can someone confirm the assay call for O=C(NCc1ccccc1CN1CCCC1)C1CCN(S(=O)(=O)c2ccc(Cl)cc2)CC1 ?
Data returned: inactive

Data request: Hi team, can someone confirm the assay call for Cc1ccc(NC(=O)COC(=O)CN2CCCCCC2=O)c(C)c1 ?
Data returned: inactive

Data request: Hi team, can someone confirm the assay call for COc1ccc(CNC(=O)COC(=O)c2c(C)nn(-c3ccccc3)c2C)cc1OC ?
Data returned: inactive
